test: MTT assay, PhTERT-SEAP (H1299); format: cell-based, human; settings: human, H1299 cells carrying the PhTERT-SEAP reporter; Conc. 1 μM; PhTERT-SEAP (H1299); read-out: Relative MTT viability (%)
As shown below, each of these molecules has a reported viability at 1 μM value.
PROPERTY LABEL: viability at 1 μM (%)

>>> recorded_number("O=C(CCl)Nc1ccc2c(c1NC(=O)c1ccc(C(F)(F)F)cc1)C(=O)c1ccccc1C2=O")
86.3
>>> recorded_number("Cc1ccc(C(=O)Nc2c(NC(=O)CN3CCN(c4ncccn4)CC3)ccc3c2C(=O)c2ccccc2C3=O)cc1")
102
>>> recorded_number("Cc1ccc(C(=O)Nc2c(NC(=O)CN3CCCCC3)ccc3c2C(=O)c2ccccc2C3=O)cc1")
86.3
>>> recorded_number("Cc1ccc(C(=O)Nc2c(NC(=O)CN(C)C)ccc3c2C(=O)c2ccccc2C3=O)cc1")
107

====

System: HS 578-T
Assay: NCI drug screen, HS 578-T
Format: cell-based, human
Conditions: HS 578-T (Breast Cancer); 1.00E−5 Molar
Method: In brief, cellular protein levels were determined after 48 hours of drug exposure by sulforhodamine B colorimetry. Through the use of a time 0 cell control, the cell growth can be determined for each cell line thus allowing calculations of the 50% growth inhibitory concentration (GI50), the total growth inhibition (TGI), and the 50% lethal concentration (LC50). […]
PROPERTY LABEL: Growth Percent (%)

>>> recorded_number("O=C(CCl)Nc1ccc2c(c1NC(=O)Cc1ccccc1)C(=O)c1ccccc1C2=O [CC-23]")
66.65
>>> recorded_number("Cc1ccc(C(=O)Nc2c(NC(=O)CN3CCCC3)ccc3c2C(=O)c2ccccc2C3=O)cc1 [CC-38]")
69.39
>>> recorded_number("Cc1ccc(C(=O)Nc2ccc3c(c2NC(=O)c2ccc(C)cc2)C(=O)c2ccccc2C3=O)cc1 [CC-04]")
105.96
>>> recorded_number("Cc1ccc(C(=O)Nc2c(NC(=O)CN3CCN(C)CC3)ccc3c2C(=O)c2ccccc2C3=O)cc1 [CC-43]")
87.29

====

test system: SR; assay: NCI drug screen, SR; assay type: cell-based, human; details: SR (Leukemia); 1.00E−5 Molar
PROPERTY LABEL: Growth Percent (%)

>>> recorded_number("Cc1ccc(C(=O)Nc2ccc3c(c2NC(=O)c2ccc(C)cc2)C(=O)c2ccccc2C3=O)cc1 [CC-04]")
87.69
>>> recorded_number("O=C(CCl)Nc1ccc2c(c1NC(=O)Cc1ccccc1)C(=O)c1ccccc1C2=O [CC-23]")
"−31.25"
>>> recorded_number("Cc1ccc(C(=O)Nc2c(NC(=O)CN3CCN(C)CC3)ccc3c2C(=O)c2ccccc2C3=O)cc1 [CC-43]")
"−43.70"
>>> recorded_number("Cc1ccc(C(=O)Nc2c(NC(=O)CCl)ccc3c2C(=O)c2ccccc2C3=O)cc1 [CC-12]")
"−19.84"

====

As shown below, each of these compounds has a reported Growth Percent value.
test system: HL-60(TB); test: NCI drug screen, HL-60(TB); assay type: cell-based, human; conditions: HL-60(TB) (Leukemia); 1.00E−5 Molar
PROPERTY LABEL: Growth Percent (%)

>>> recorded_number("Cc1ccc(C(=O)Nc2c(NC(=O)CCl)ccc3c2C(=O)c2ccccc2C3=O)cc1 [CC-12]")
"−46.88"
>>> recorded_number("Cc1ccc(C(=O)Nc2c(NC(=O)CN3CCN(C)CC3)ccc3c2C(=O)c2ccccc2C3=O)cc1 [CC-43]")
"−8.54"
>>> recorded_number("Cc1ccc(C(=O)Nc2ccc3c(c2NC(=O)c2ccc(C)cc2)C(=O)c2ccccc2C3=O)cc1 [CC-04]")
73.11
>>> recorded_number("O=C(CCl)Nc1ccc2c(c1NC(=O)Cc1ccccc1)C(=O)c1ccccc1C2=O [CC-23]")
41.36
>>> recorded_number("Cc1ccc(C(=O)Nc2c(NC(=O)CN3CCCC3)ccc3c2C(=O)c2ccccc2C3=O)cc1 [CC-38]")
96.11

Numbers sourced from patent US8530465B2.
